Items are presented alongside their recorded pEC50.
# experimental.target: T1, human BCMA (human, UniProt Q02223 1-184)
# T1 construct: whole, on cells; the cell line is named under assay; also called TNFRSF17; CD269
# T1 sequence (looked up): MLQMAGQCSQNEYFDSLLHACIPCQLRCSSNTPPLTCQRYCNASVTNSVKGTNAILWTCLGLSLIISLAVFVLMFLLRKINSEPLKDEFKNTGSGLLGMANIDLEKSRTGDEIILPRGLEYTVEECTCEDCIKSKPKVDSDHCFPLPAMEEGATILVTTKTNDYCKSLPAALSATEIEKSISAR
# experiment.description: flow cytometry, NCI-H929 cells
Notebook: values listed as pEC50 are -log10 of the concentration (mol/L).

Reference set, count: 4
binder | pEC50
PR000274, anti-BCMA monoclonal antibody CA8-J6M0 (antibody, human IgG1, kappa, V domains shown, Control antibody; also called Positive control 1; CA8-J6M0 hIgG1) VH: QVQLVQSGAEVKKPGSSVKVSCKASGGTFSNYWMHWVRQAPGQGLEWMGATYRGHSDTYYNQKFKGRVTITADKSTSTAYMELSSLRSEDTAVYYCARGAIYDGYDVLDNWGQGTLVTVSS VL: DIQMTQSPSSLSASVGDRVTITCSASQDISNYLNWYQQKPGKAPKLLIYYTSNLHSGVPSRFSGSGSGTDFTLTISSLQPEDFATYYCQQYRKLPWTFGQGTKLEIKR | 7.97
PR000943, anti-BCMA HCAb antibody, clone 1005P16A10 (antibody, human IgG1, V domains shown, Heavy-chain-only antibody (HCAb), human IgG1 Fc, no light chain) VH: EVQLVETGGGLIQPGGSLRLSCAASGFPVSSNYMSWVRQAPGKGLEWVSVIFSGGRTYYADSVKGRFTISRDNSKNTLYLQMNSLRAEDTAVYYCARRNWIDGRDAFDIWGQGTMVTVSS | 8.32
PR000940, anti-BCMA HCAb antibody, clone 1005P10H8 (antibody, human IgG1, V domains shown, Heavy-chain-only antibody (HCAb), human IgG1 Fc, no light chain) VH: EVQLLESGGGLVQPGGSLRLSCAASGFTFSSYAMIWVRQAPGKGLEWVSGISESGGSTYYADSVKGRFTISRDNSKNTLYLQMNSLRAEDTAVYFCVKDLDDILTGYYKDYWGQGTLVTVSS | 8.73
PR001046, anti-BCMA HCAb antibody, clone 1005P63B7 (antibody, human IgG1, V domains shown, Heavy-chain-only antibody (HCAb), human IgG1 Fc, no light chain) VH: EVQLVETGGGLIQPGGSLRLSCAASGFTVSDNYMTWVRQAPGKGLEWVSVIFSGGNTYYADSVKGRFTISRDNAKNTLYLQMNSLRAEDTALYYCARRNYDDTRGTDVFDIWGQGTMVTVSS | 8.81

Would you kindly look at the next entry?
Indicate the recorded pEC50 value for this binder: PR001035, anti-BCMA HCAb antibody, clone 1005P36F3 (antibody, human IgG1, V domains shown, Heavy-chain-only antibody (HCAb), human IgG1 Fc, no light chain) VH: EVQLVETGGGLIQPGGSLRLSCAASGFTVSSNYMTWVRQAPGKGLEWVSVIFSGGSTYYADSVKGRFTISRDNSKNTLYLQMNSLRAEDTAVYYCARRIAVAGHDVFDIWGQGTMVTVSS 8.92
